- target desc: MAPK15 (human) (UniProt Q8TD08)
- Sequence (Q8TD08 whole entry, looked up): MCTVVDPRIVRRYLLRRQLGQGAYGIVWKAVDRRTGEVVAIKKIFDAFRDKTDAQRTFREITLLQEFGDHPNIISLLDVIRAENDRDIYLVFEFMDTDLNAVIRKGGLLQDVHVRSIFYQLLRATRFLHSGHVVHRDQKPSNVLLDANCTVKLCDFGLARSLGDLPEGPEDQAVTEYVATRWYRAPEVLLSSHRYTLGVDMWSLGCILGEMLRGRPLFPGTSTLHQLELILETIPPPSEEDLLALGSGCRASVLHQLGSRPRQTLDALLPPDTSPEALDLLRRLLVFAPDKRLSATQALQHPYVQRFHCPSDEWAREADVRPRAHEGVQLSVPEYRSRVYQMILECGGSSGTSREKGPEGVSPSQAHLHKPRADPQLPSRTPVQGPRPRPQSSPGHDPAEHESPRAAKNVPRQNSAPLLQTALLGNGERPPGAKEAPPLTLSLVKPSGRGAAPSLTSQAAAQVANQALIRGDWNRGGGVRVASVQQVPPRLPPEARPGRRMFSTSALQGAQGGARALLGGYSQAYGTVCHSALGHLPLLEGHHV
- assay protocol: KINOMEscan competition binding
- condition summary: compound 10.0 µM
readout kind: kinase still bound, per cent of control (%)
Express the result in % but write the number alone.

// worked examples, kinase still bound, per cent of control included
[
  {
    "molecule": "COc1cc(C)c(Sc2cnc(NC(=O)c3ccc(CNC(C)C(C)C)cc3)s2)cc1C(=O)N1CCN(C(C)=O)CC1 (stereo not given)",
    "unit label": "%",
    "value reported": 100
  },
  {
    "molecule": "CCOc1cc(N2CCC(O)CC2)ccc1Nc1ncc2c(n1)N(C)c1ccccc1C(=O)N2C",
    "unit label": "%",
    "value reported": 100
  },
  {
    "molecule": "C=CC(=O)Nc1ccc(C(=O)c2sc(Nc3ccc(N4CCN(C)CC4)cc3OC)nc2N)cc1",
    "unit label": "%",
    "value reported": 75
  },
  {
    "molecule": "CCc1nc(-c2cccc(C)c2)c(-c2ccnc(NC(=O)c3ccccc3)c2)s1",
    "unit label": "%",
    "value reported": 100
  },
  {
    "molecule": "O=c1[nH]c2ccccc2n1C1CCN(Cc2ccc(-c3nc4cc5[nH]cnc5cc4nc3-c3ccccc3)cc2)CC1",
    "unit label": "%",
    "value reported": 100
  },
  {
    "molecule": "CCCS(=O)(=O)Nc1ccc(F)c(C(=O)c2c[nH]c3ncc(Cl)cc23)c1F",
    "unit label": "%",
    "value reported": 97
  }
]

Query string: Fill blank: measured kinase still bound, per cent of control of the molecule `COc1cc2ncnc(Nc3cccc(Cl)c3)c2cc1OC` is ____.
Result string: 100

Query string: Fill blank: measured kinase still bound, per cent of control of the molecule `COc1cc2c(Nc3ccc(NC(=O)c4ccccc4)cc3)ncnc2cc1OCCCN1CCOCC1` is ____.
Result string: 100

Query string: Fill blank: measured kinase still bound, per cent of control of the molecule `Cc1cn(-c2cc(C(=O)Nc3ccc(C)c(NC(=O)c4ccno4)c3)cc(C(F)(F)F)c2)cn1` is ____.
Result string: 100

Query string: Fill blank: measured kinase still bound, per cent of control of the molecule `N#Cc1cc(-c2ccnc(Nc3ccc(-n4cnc(-c5cccnc5)n4)cc3)n2)cc(N2CCOCC2)c1` is ____.
Result string: 2

###

- target desc: MAP2K2 (human)
- assay protocol: KINOMEscan competition binding
- condition summary: compound 10.0 µM
readout kind: kinase still bound, per cent of control (%)
Express the result in % but write the number alone.

[
  {
    "compound": "N#C/C(=C1/Nc2ccccc2S1)c1ccnc(NCCc2cccnc2)n1",
    "kinase still bound, per cent of control (%)": 17
  },
  {
    "compound": "CCc1nc(-c2cccc(C)c2)c(-c2ccnc(NC(=O)c3ccccc3)c2)s1",
    "kinase still bound, per cent of control (%)": 90
  },
  {
    "compound": "COc1cc(N2CCC(C(N)=O)CC2)ccc1Nc1nc(N)c(Cl)c(Nc2ccccc2S(=O)(=O)C(C)C)n1",
    "kinase still bound, per cent of control (%)": 100
  },
  {
    "compound": "CCCS(=O)(=O)Nc1ccc(F)c(C(=O)c2c[nH]c3ncc(Cl)cc23)c1F",
    "kinase still bound, per cent of control (%)": 1
  },
  {
    "compound": "CC1=C(C(=O)Nc2cc3cn[nH]c3cc2F)C(c2ccc(C(F)(F)F)cc2)CC(=O)N1 (centres undefined)",
    "kinase still bound, per cent of control (%)": 64
  }
]

Query string: Fill blank: measured kinase still bound, per cent of control of the compound `COc1cc2c(Nc3ccc(NC(=O)c4ccccc4)cc3)ncnc2cc1OCCCN1CCOCC1` is ____.
Result string: 0.1

Query string: Fill blank: measured kinase still bound, per cent of control of the compound `C=CC(=O)Nc1ccc(C(=O)c2sc(Nc3ccc(N4CCN(C)CC4)cc3OC)nc2N)cc1` is ____.
Result string: 89

Query string: Fill blank: measured kinase still bound, per cent of control of the compound `CCOc1cc(N2CCC(O)CC2)ccc1Nc1ncc2c(n1)N(C)c1ccccc1C(=O)N2C` is ____.
Result string: 100

Query string: Fill blank: measured kinase still bound, per cent of control of the compound `O=c1[nH]c2ccccc2n1C1CCN(Cc2ccc(-c3nc4cc5[nH]cnc5cc4nc3-c3ccccc3)cc2)CC1` is ____.
Result string: 75

All figures here come from the kinase profiling compilation of Christmann-Franck et al. (2016).
